Biological target: Sentrin-specific protease 6 (Homo sapiens)
Experiment: SENP6 protease inhibitors, primary screen, biochemical, luminescence, uHTS (AID 2599);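 note: plate controls were DMSO wells with enzyme for no effect and DMSO wells lacking enzyme for full effect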
Conditions: Recombinant SENP6 catalytic domain, aminoluciferin luminescence; at 10 µM; stronger effect = higher value
In all, about 330,000 compounds went through this assay and about 5,800 (1.8%) were called active. Many of the other results were omitted from the sample, so actives are more common in it than they were.

- Compound: "CCOc1ccc(-n2c(SCC(N)=O)nnc2-c2ccco2)cc1"
  Result units: "%"
  inhibition: -12.9
- Compound: "Fc1ccc2nc(Nc3nc4c(s3)CCCC4)sc2c1"
  Result units: "%"
  inhibition: 34.4
- Compound: "Fc1ccc2nc(N3CCCCC3)sc2c1"
  Result units: "%"
  inhibition: 89.5
- Compound: "CCCCOc1ccc(-c2ncc(C(=O)OCC)c(N)n2)cc1"
  Result units: "%"
  inhibition: -8.7
- Compound: "c1ccc(C[C@H]2CNCCN2CCC23CC4CC(CC(C4)C2)C3)cc1"
  Result units: "%"
  inhibition: 1.32
- Compound: "O=C(Nc1ccncc1)c1ccccc1[N+](=O)[O-]"
  Result units: "%"
  inhibition: -15.3
- Compound: "N#Cc1ccc(OCc2nnc(-c3ccc([N+](=O)[O-])cc3)o2)cc1"
  Result units: "%"
  inhibition: -4.94
- Compound: "O=C(Nc1ccncc1)c1ccc([N+](=O)[O-])cc1Cl"
  Result units: "%"
  inhibition: -18.8
- Compound: "CCCCOc1ccc(-c2nnc(-c3ccco3)o2)cc1"
  Result units: "%"
  inhibition: 67.2
- Compound: "O=C(CCNC(=O)c1ccc(Cl)cc1)NC1CCCc2ccccc21 (configuration not stated)"
  Result units: "%"
  inhibition: 2
- Compound: "c1ccc(CN=C2Nc3ccccc3CS2)nc1"
  Result units: "%"
  inhibition: 52.5
- Compound: "O=S(=O)(Nc1ccc2nc(N3CCOCC3)sc2c1)c1ccccc1"
  Result units: "%"
  inhibition: -2.51

====

Each record here notes measured inhibition.
Molecular target: Sentrin-specific protease 6 (Homo sapiens) (UniProt Q9GZR1)
Sequence (Q9GZR1 628-1112 limits assumed): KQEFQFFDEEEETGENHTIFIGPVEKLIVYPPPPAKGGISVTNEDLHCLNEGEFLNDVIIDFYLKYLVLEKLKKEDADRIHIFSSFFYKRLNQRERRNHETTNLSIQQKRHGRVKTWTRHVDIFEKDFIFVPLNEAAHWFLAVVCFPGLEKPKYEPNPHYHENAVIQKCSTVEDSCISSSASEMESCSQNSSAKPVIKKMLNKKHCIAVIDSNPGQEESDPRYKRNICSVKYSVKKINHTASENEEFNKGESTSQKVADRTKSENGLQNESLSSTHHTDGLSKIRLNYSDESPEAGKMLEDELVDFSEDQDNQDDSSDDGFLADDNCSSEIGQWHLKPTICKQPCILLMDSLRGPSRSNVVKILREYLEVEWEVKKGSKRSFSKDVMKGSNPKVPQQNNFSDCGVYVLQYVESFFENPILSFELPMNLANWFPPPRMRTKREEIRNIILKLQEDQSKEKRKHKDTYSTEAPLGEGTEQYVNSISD
Experiment: SENP6 protease inhibitors, primary screen, biochemical, luminescence, uHTS (AID 2599);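 note: plate controls were DMSO wells with enzyme for no effect and DMSO wells lacking enzyme for full effect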
Conditions: Recombinant SENP6 catalytic domain, aminoluciferin luminescence; at 10 µM; stronger effect = higher value
In all, about 330,000 compounds went through this assay and about 5,800 (1.8%) were called active. Shown is part of a subset that was picked to be rich in actives.
Reported property: inhibition (%)

- Molecule: "COC(=O)N/N=C/c1ccc(/C=N/NC(=O)OC)cc1"
  Result units: "%"
  Reported value: -17.5
- Molecule: "O=C(Nc1ccc2c(c1)OCCO2)C1CCCC1"
  Result units: "%"
  Reported value: 15.1
- Molecule: "COc1ccc(N2C(=O)C(O)C2c2ccc(C)cc2)cc1 (centres undefined)"
  Result units: "%"
  Reported value: -8.14
- Molecule: "C=CCn1c(-c2ccc(Cl)cc2)ccc(C#N)c1=O"
  Result units: "%"
  Reported value: 4.58
- Molecule: "CCOC(=O)c1cnc2[nH]c3ccccc3n2c1=O"
  Result units: "%"
  Reported value: 83
- Molecule: "Cc1ccccc1NC(=O)C1CCN(C(=O)NC2CCCCC2)CC1"
  Result units: "%"
  Reported value: -18.9
- Molecule: "Cc1ccc(OC(=O)c2cc3ccccc3o2)cc1"
  Result units: "%"
  Reported value: 72.6
- Molecule: "Cc1nc2ccc(C(=O)N/N=C/c3ccc(O)cc3)cc2[nH]1"
  Result units: "%"
  Reported value: -6.89
- Molecule: "CSc1cccc(NC(=S)N(C(C)C)C(C)c2ccccn2)c1 (centres undefined)"
  Result units: "%"
  Reported value: 4.01
- Molecule: "CCCc1ccc(-c2c(C)sc(NC(=O)c3ccnn3C)c2C#N)cc1"
  Result units: "%"
  Reported value: -0.479
- Molecule: "CCCNC(=S)NC1CC2CCCC(C1)N2CC(C)C (centres undefined)"
  Result units: "%"
  Reported value: -7.92
- Molecule: "O=C(COC(=O)c1cc(S(=O)(=O)N2CCOCC2)ccc1F)NC1CC1"
  Result units: "%"
  Reported value: -2.29
- Molecule: "CC(C)CN(Cc1c(O)ccc2c(=O)c(-c3ccccc3)coc12)CC(C)C"
  Result units: "%"
  Reported value: -12.1
- Molecule: "Cc1nonc1C(=O)N/N=C/c1ccc(O)cc1"
  Result units: "%"
  Reported value: 98.9
- Molecule: "COc1ccccc1CN(C)C(=O)c1cc2ccccc2o1"
  Result units: "%"
  Reported value: -15.1
- Molecule: "CN(C)c1ccc(NC(=O)CN2C3CCCC2CC(NC(=O)c2ccccc2)C3)cc1 (centres undefined)"
  Result units: "%"
  Reported value: -8.69
- Molecule: "CSCc1ccc(C(=O)Nc2cc(C)cc(C)c2)cc1"
  Result units: "%"
  Reported value: 86
- Molecule: "O=C(COc1ccc(Cl)cc1)NCc1nnc(SCC(=O)NCC2CCCO2)o1 (centres undefined)"
  Result units: "%"
  Reported value: -1.58
- Molecule: "O=C(Nc1cc2ccccc2oc1=O)C1CCCCC1"
  Result units: "%"
  Reported value: 62.5
- Molecule: "C/C(=N\\NC(=S)Nc1ccc(C)cc1)c1cc2ccccc2o1"
  Result units: "%"
  Reported value: -7.73
- Molecule: "CC(C)N1C(=O)N(c2ccccc2)C(C)(O)CC1(C)C (centres undefined)"
  Result units: "%"
  Reported value: -17.1
- Molecule: "Cc1ccc(NC(=O)[C@H](Cc2ccccc2)NC(=O)C2CCNCC2)cc1"
  Result units: "%"
  Reported value: -5.94
- Molecule: "CCOC(=O)c1cnc2sccn2c1=O"
  Result units: "%"
  Reported value: -5.45
- Molecule: "CCCOc1ccc(NC(=O)CC2C(=O)N(C)C(=S)N2Cc2ccc3c(c2)OCO3)cc1 (centres undefined)"
  Result units: "%"
  Reported value: -5.66
